tested on: KM12 colon; experiment: NCI tumour cell line growth inhibition, 48 h
The entries below are paired with their reported TGI.
reported.metric: TGI (µM)

[[record]]
compound = "CC1(C)CCC[C@]23C(=O)O[C@](O)(C(=O)C4=C[C@@](C)(/C=C/CCCc5ccc6ccc7cccc8ccc5c6c78)CC[C@@]42O)[C@@H]13"
units_label = "µM"
value_measured = 0.34

[[record]]
compound = "CC[C@]12C=CCN3CCC4(c5cc(N=Nc6ccccc6)c(OC)cc5N(C)[C@H]4[C@@](O)(C(=O)OC)[C@@H]1OC(C)=O)[C@@H]32 (some centres undefined)"
units_label = "µM"
value_measured = 37.7

[[record]]
compound = "CCOC(=O)c1cc2c(OC(C)=O)ccc(OC(C)=O)c2s1"
units_label = "µM"
value_measured = 17.6

[[record]]
compound = "CCC1C(C)c2c([nH]c3ccccc23)C2C(=O)N(c3ccccc3)C(=O)C21 (centres undefined)"
units_label = "µM"
value_measured = 32.1


---

tested on: HCC-2998 colon; experiment: NCI tumour cell line growth inhibition, 48 h; in the data active means GI50 below about 0.43 µM; inactive means the rest
Possible outcomes: 1 (yes) (active), 0 (no) (inactive)

[[record]]
compound = "COc1ccc(-c2ccc3c(NC(=O)C4CC4)n[nH]c3n2)cc1"
assigned_category = "0 (no)"

[[record]]
compound = "N#Cc1c(NC(=O)c2ccccc2)sc2c1CCC(=O)C2"
assigned_category = "0 (no)"

[[record]]
compound = "Cl.[Pt].[c-]1ccccc1-c1ccccn1.c1ccc(P(c2ccccc2)C([PH+](c2ccccc2)c2ccccc2)[PH+](c2ccccc2)c2ccccc2)cc1"
assigned_category = "0 (no)"

[[record]]
compound = "Nc1ccc(-c2nc3ccc4[nH]ncc4c3c3c2CCCC3)cc1F"
assigned_category = "0 (no)"

[[record]]
compound = "CC1(C)CCC[C@]23C(=O)O[C@](O)(C(=O)C4=C[C@@](C)(/C=C/CCCc5ccc6ccc7cccc8ccc5c6c78)CC[C@@]42O)[C@@H]13"
assigned_category = "1 (yes)"

[[record]]
compound = "Cc1ccc(Cl)cc1Nc1nc(C(F)(F)F)ccc1C(=O)Nc1cccc(C(F)(F)F)c1"
assigned_category = "0 (no)"

[[record]]
compound = "COc1ccc(N2CCN(C(=O)c3ccccc3Nc3ccnc(C(F)(F)F)c3)CC2)cc1"
assigned_category = "0 (no)"

[[record]]
compound = "COC(=O)C[CH](C(=O)OC)[Ge]([CH3])([CH3])[S]c1ccccc1 (stereo not given)"
assigned_category = "0 (no)"

[[record]]
compound = "COc1ccc(-c2ccc(/C=C/C(=O)NO)cc2)cc1"
assigned_category = "0 (no)"

[[record]]
compound = "CCCCCCCCCCCCn1c(C)nc2ccccc21"
assigned_category = "0 (no)"


---

system: K-562 leukemia; experiment: NCI tumour cell line growth inhibition, 48 h; in the data active = GI50 below about 0.43 µM; inactive = the rest
Possible outcomes: Yes (active), No (inactive)

[[record]]
sample_smiles = "COc1ccc(/C(C)=C(\\c2ccc(Cl)cc2)c2ccc(OCCN3CCCC3)cc2)cc1"
assigned_category = "No"

[[record]]
sample_smiles = "COc1ccc(C(=O)c2cc(OC)c(OC)c(OC)c2)cc1OC(C)=O"
assigned_category = "Yes"

[[record]]
sample_smiles = "CC(C)C[C@H](NC(=O)[C@H](CCc1ccccc1)NC(=O)CN1CCOCC1)C(=O)N[C@@H](Cc1ccccc1)C(=O)N[C@@H](CC(C)C)C(=O)[C@@]1(C)CO1"
assigned_category = "Yes"

[[record]]
sample_smiles = "S=c1nc(-c2ccccc2)oc(=NC2CCCCC2)n1C1CCCCC1"
assigned_category = "No"


Measured values drawn from PubChem BioAssay (NCI) for this set.
